- Tested on: human PKK mRNA
- Measurement Description: Antisense inhibition of human PKK mRNA in HepaRG cells, 1,000 nM, MOE/deoxy/cEt oligonucleotides (Example 3)
- Format: cell-based
- Setup Conditions: HepaRG cells, electroporation with 1,000 nM antisense oligonucleotide, approximately 24 hours, primer probe set RTS3454, relative to untreated control cells; experiment of Table 24
Strand notation (5' to 3'): a small letter for the sugar, then the base; units joined by * are phosphorothioate-linked, units joined directly phosphodiester-linked; [ ] holds rarer units or linkages, { } end groups; capitals alone tell only the bases. e = 2'-O-(2-methoxyethyl) (MOE); k = constrained ethyl (cEt); [5mC] = 5-methylcytosine; d = 2'-deoxy (DNA)
Each entry gets 0 (no) if its % inhibition stays under 60%, and 1 (yes) if its % inhibition is 60% or above.

For this substance, is measured % inhibition 60% or higher? 548057 (e[5mC]*eA*kT*dA*dT*dT*dG*dG*dT*dT*dT*dT*dT*kG*kG*eA; antisense) [compound 548057]
0 (no)

For this substance, is measured % inhibition 60% or higher? 547747 (eT*e[5mC]*kA*d[5mC]*dT*dG*dT*dA*d[5mC]*dT*dA*dG*dT*kT*kT*e[5mC]) [compound 547747]
1 (yes)

For this substance, is measured % inhibition 60% or higher? 548047 (eG*eA*kT*dA*dT*d[5mC]*dA*dT*dG*dA*dT*dT*d[5mC]*k[5mC]*k[5mC]*eT; antisense) [compound 548047]
1 (yes)

For this substance, is measured % inhibition 60% or higher? 548042 (eT*eT*kT*dG*dT*dG*dA*dG*dA*dA*dA*dG*dG*kT*kG*eT; antisense) [compound 548042]
1 (yes)

For this substance, is measured % inhibition 60% or higher? 548014 (eT*eG*kT*d[5mC]*d[5mC]*d[5mC]*d[5mC]*dA*dG*dT*dG*dT*dT*kA*k[5mC]*eA; antisense) [compound 548014]
0 (no)

* * *

- System: human PKK mRNA
- Measurement Description: Dose-dependent antisense inhibition of human PKK in HepaRG cells, 0.19-5.00 uM (Example 5)
- Format: cell-based
- Setup Conditions: 4 point dose response, HepaRG cells; Table 39
Strand notation (5' to 3'): a small letter for the sugar, then the base; units joined by * are phosphorothioate-linked, units joined directly phosphodiester-linked; [ ] holds rarer units or linkages, { } end groups; capitals alone tell only the bases. e = 2'-O-(2-methoxyethyl) (MOE); [5mC] = 5-methylcytosine; d = 2'-deoxy (DNA)
Outcome Measure: IC50

Tell us which IC50 value is on record for 547632 (antisense eT*e[5mC]*eA*e[5mC]*eT*dG*dT*d[5mC]*d[5mC]*dT*dA*dT*dA*dT*d[5mC]*eA*e[5mC]*eT*e[5mC]*eT) [compound 547632]
600 nM

Tell us which IC50 value is on record for 531231 (eT*eA*eT*e[5mC]*eA*d[5mC]*dT*dG*dT*dA*d[5mC]*dT*dA*dG*dT*eT*eT*e[5mC]*e[5mC]*eT) [compound 531231]
600 nM

Tell us which IC50 value is on record for 546870 (e[5mC]*eT*eG*eT*eA*d[5mC]*d[5mC]*dT*dA*dT*dA*dA*d[5mC]*dT*d[5mC]*eT*eA*eA*e[5mC]*eA; antisense) [compound 546870]
500 nM

Tell us which IC50 value is on record for 546876 (eG*eT*e[5mC]*e[5mC]*eT*dA*dT*dA*dT*d[5mC]*dA*d[5mC]*dT*dG*dT*eA*e[5mC]*e[5mC]*eT*eG; antisense) [compound 546876]
800 nM

* * *

Would you kindly list percent inhibition of PKK mRNA, 0.11 μM for each of these substances?
- Tested on: human PKK mRNA
- Measurement Description: Dose-dependent antisense inhibition of human PKK in HepaRG cells, 0.11-3.00 uM (Example 6)
- Format: cell-based
- Setup Conditions: electroporation, 0.11 μM, approx. 16 hours, relative to untreated control cells
Strand notation (5' to 3'): a small letter for the sugar, then the base; units joined by * are phosphorothioate-linked, units joined directly phosphodiester-linked; [ ] holds rarer units or linkages, { } end groups; capitals alone tell only the bases. e = 2'-O-(2-methoxyethyl) (MOE); k = constrained ethyl (cEt); [5mC] = 5-methylcytosine; d = 2'-deoxy (DNA)
Unit % implied. Number only.

Tell us which percent inhibition of PKK mRNA, 0.11 μM value is on record for 548069 (e[5mC]*e[5mC]*kA*dA*d[5mC]*dA*dG*dT*dT*dG*dG*dT*dA*kT*kA*eA; antisense) [compound 548069]
6

Tell us which percent inhibition of PKK mRNA, 0.11 μM value is on record for 548147 (e[5mC]*eG*kT*d[5mC]*d[5mC]*dT*dT*dA*dG*dG*dA*dT*dG*k[5mC]*kA*eA; antisense) [compound 548147]
59

Tell us which percent inhibition of PKK mRNA, 0.11 μM value is on record for 548220 (eG*e[5mC]*kA*dG*dA*dA*dA*dT*d[5mC]*d[5mC]*dT*dG*dT*kG*k[5mC]*eA; antisense) [compound 548220]
0

* * *

- Tested on: human PKK mRNA
- Measurement Description: Antisense inhibition of human PKK mRNA in HepaRG cells, 1,000 nM, MOE/deoxy/cEt oligonucleotides (Example 3)
- Assay type: cell-based
- Setup Conditions: Table 30; human PKK mRNA, HepaRG cells, 1,000 nM antisense oligonucleotide
Strand notation (5' to 3'): a small letter for the sugar, then the base; units joined by * are phosphorothioate-linked, units joined directly phosphodiester-linked; [ ] holds rarer units or linkages, { } end groups; capitals alone tell only the bases. e = 2'-O-(2-methoxyethyl) (MOE); k = constrained ethyl (cEt); [5mC] = 5-methylcytosine; d = 2'-deoxy (DNA)
Each entry gets NOT MET if its % inhibition stays under 70%, and MET if its % inhibition is 70% or above.

For this substance, is measured % inhibition 70% or higher? 548410 (antisense eA*eG*kT*dA*dT*d[5mC]*dA*d[5mC]*dT*dG*dT*dA*d[5mC]*kT*kA*eG) [compound 548410]
MET

For this substance, is measured % inhibition 70% or higher? 548390 (eG*e[5mC]*kT*dG*dA*dG*dT*dG*dT*dG*dA*d[5mC]*dT*kT*kA*eA; antisense) [compound 548390]
NOT MET

For this substance, is measured % inhibition 70% or higher? 548418 (antisense eT*eA*kT*dA*dT*d[5mC]*dA*d[5mC]*dT*dG*dT*d[5mC]*d[5mC]*kT*kA*eT) [compound 548418]
NOT MET

For this substance, is measured % inhibition 70% or higher? 548392 (eG*eT*kA*dG*dA*dG*d[5mC]*dA*dT*dG*dG*dA*dG*k[5mC]*kG*eA; antisense) [compound 548392]
NOT MET

For this substance, is measured % inhibition 70% or higher? 548393 (e[5mC]*eG*k[5mC]*dT*dT*d[5mC]*dA*dG*dG*dA*dA*dA*dG*k[5mC]*kG*eA; antisense) [compound 548393]
NOT MET

* * *

Would you kindly list % inhibition for each of these substances?
- Tested on: human PKK mRNA
- Measurement Description: Antisense inhibition of human PKK mRNA in HepaRG cells, 1,000 nM, MOE/deoxy/cEt oligonucleotides (Example 3)
- Format: cell-based
- Setup Conditions: HepaRG cells, electroporation with 1,000 nM antisense oligonucleotide, approximately 24 hours, primer probe set RTS3454, relative to untreated control cells; experiment of Table 23
Strand notation (5' to 3'): a small letter for the sugar, then the base; units joined by * are phosphorothioate-linked, units joined directly phosphodiester-linked; [ ] holds rarer units or linkages, { } end groups; capitals alone tell only the bases. e = 2'-O-(2-methoxyethyl) (MOE); k = constrained ethyl (cEt); [5mC] = 5-methylcytosine; d = 2'-deoxy (DNA)
# include the unit after the value

Tell us which % inhibition value is on record for 547968 (antisense eT*eT*kA*dG*dA*dA*dT*dG*dG*d[5mC]*dA*dG*dG*kG*kT*eT) [compound 547968]
37%

Tell us which % inhibition value is on record for 547965 (antisense eG*eG*kG*dT*dT*d[5mC]*dA*dG*dG*dT*dA*dA*dA*kG*kT*eT) [compound 547965]
29%

Tell us which % inhibition value is on record for 547985 (antisense eG*e[5mC]*kG*dA*dA*dT*d[5mC]*dA*dT*d[5mC]*dT*dT*dT*kG*kT*eG) [compound 547985]
63%

Tell us which % inhibition value is on record for 547986 (antisense e[5mC]*eA*kG*d[5mC]*dG*dA*dA*dT*d[5mC]*dA*dT*d[5mC]*dT*kT*kT*eG) [compound 547986]
63%

Tell us which % inhibition value is on record for 547996 (antisense eT*eG*kT*dG*dT*d[5mC]*d[5mC]*d[5mC]*dA*dT*dA*d[5mC]*dG*k[5mC]*kA*eA) [compound 547996]
65%

Tell us which % inhibition value is on record for 547946 (eG*eA*kA*d[5mC]*dT*dT*dG*dG*dT*dG*dT*dG*d[5mC]*k[5mC]*kA*e[5mC]; antisense) [compound 547946]
81%

Tell us which % inhibition value is on record for 547938 (eT*eT*kG*dT*dG*dA*d[5mC]*dT*d[5mC]*dG*dA*dT*dT*kT*kT*e[5mC]; antisense) [compound 547938]
56%

Tell us which % inhibition value is on record for 547987 (antisense eA*e[5mC]*kA*dG*d[5mC]*dG*dA*dA*dT*d[5mC]*dA*dT*d[5mC]*kT*kT*eT) [compound 547987]
64%

Tell us which % inhibition value is on record for 547957 (eG*eG*kT*dT*dA*dA*dA*dA*dG*dG*d[5mC]*dT*dA*kT*kA*eT; antisense) [compound 547957]
6%

Tell us which % inhibition value is on record for 547924 (eG*eT*k[5mC]*d[5mC]*dG*dA*d[5mC]*dA*d[5mC]*dA*d[5mC]*dA*dA*kA*kA*eG; antisense) [compound 547924]
53%

Tell us which % inhibition value is on record for 547940 (eT*eT*kT*d[5mC]*dT*dT*dT*dG*dT*dG*dA*d[5mC]*dT*k[5mC]*kG*eA; antisense) [compound 547940]
71%

Tell us which % inhibition value is on record for 547984 (antisense e[5mC]*eG*kA*dA*dT*d[5mC]*dA*dT*d[5mC]*dT*dT*dT*dG*kT*kG*e[5mC]) [compound 547984]
55%

Reference source: patent US11840686B2
